Numbers sourced from PubChem BioAssay.

assay: fluorescence interference in NS3h assay format, artefact control for HCV NS3 helicase inhibitor project, biochemical, NIH Clinical Collection (AID 743272); conditions: fluorescence interference counterscreen, active compounds read low;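 also: HCV NS3 helicase with a Cy5 labelled single stranded DNA probe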

compound: CC[C@H](C)C(=O)O[C@H]1CCC=C2C=C[C@H](C)[C@H](CC[C@@H]3C[C@@H](O)CC(=O)O3)[C@H]21
fluorescence ratio: 0.89
--
compound: CNCCC=C1c2ccccc2CCc2ccccc21
fluorescence ratio: 0.99
--
compound: COC(=O)C1=C(C)NC(C)=C(C(=O)OC)C1c1ccccc1[N+](=O)[O-]
fluorescence ratio: 0.9
--
compound: CC(C)NCC(O)COc1cccc2[nH]ccc12 (stereo not given)
fluorescence ratio: 0.9
--
compound: Nc1ccn([C@@H]2O[C@H](CO)[C@@H](O)C2O)c(=O)n1 (stereo not given in full)
fluorescence ratio: 0.87
